# Test system: Helicobacter pylori
# test_name: In vitro antibacterial activity against Helicobacter pylori (No. 7)
# Format: functional
metric_name: MIC (µg/mL)

>>> readout_value("CC1(C)S[C@@H]2[C@H](NC(=O)[C@H](N)c3ccc(O)cc3)C(=O)N2[C@H]1C(=O)O")
0.1
>>> readout_value("CC(C)=CCC/C(C)=C/CC/C(=C/CC/C(C)=C/C/N=C(\\S)NCCc1ccccc1)C/N=C(\\S)NCCc1ccccc1")
6.25
>>> readout_value("CC(C)=CCC/C(C)=C/CCC(=CCCC(C)=CCO)C/N=C(\\S)NCCc1ccccc1")
1.56
